Each recorded value in this set is attributed to ChEMBL document CHEMBL3507680.

- assay text: Human HepG2 cell viability assay in 384 well format
- Assay type: toxicity, cell-based
- Set-up: dose 125 nL, time 70.5 hour; concentration not given beside the values
- applied conditions: HepG2 cells, read-out: Inhibition
Task for the reader: assign each of the following compounds its reported cytotoxicity at 70.5 h.
Give bare numbers, in %.

compound: CNc1nc2c(s1)C(=O)CN(C(=O)NCc1ccccc1)C2
reading unit: %
endpoint result: -9.93
//
compound: Nc1cc2c(nn1)CCN(C(=O)c1ccc(-c3ccco3)[nH]c1=O)C2
reading unit: %
endpoint result: -1.23
//
compound: COCCN1CCN(C(=O)c2ccc(C)cc2F)[C@H]2CS(=O)(=O)C[C@H]21
reading unit: %
endpoint result: -8.53
//
compound: O=C(c1cnc(O)cn1)N1C[C@@H]2CC[C@H](C1)N(Cc1ccccc1)C2
reading unit: %
endpoint result: -0.665
//
compound: COC(=O)N1CCCN(C(=O)c2cccc3cccnc23)CC1
reading unit: %
endpoint result: -7.61

Working through the 6 compounds below one at a time, give cytotoxicity at 70.5 h for each.
1. COC(=O)CNC(=O)C1CCN(S(C)(=O)=O)CC1
2. C=C(C)COc1cccc(C(=O)NC(C)c2nnn[nH]2)c1 (stereo not drawn)
3. CCC(C)N1Cc2c(C(=O)N3CCOCC3)nn(C)c2C1 (stereo not drawn)
4. CN(C)CCNc1cc(-c2ncccc2Cl)c2cc[nH]c2n1
5. CCc1nc(C2CCCN(C(=O)c3ccc(OC(C)C)nc3)C2)no1 (stereo not drawn)
6. Cc1cnc(C(=O)N2CCCC(Cn3cc(C4CC4)nn3)C2)cn1 (stereo not drawn)

1. -9.71
2. 18.4
3. -6.15
4. 1.89
5. 17.6
6. -10.1

Working through the 3 compounds below one at a time, give cytotoxicity at 70.5 h for each.
1. O=S(=O)(NCCn1cc(C2CCCNC2)nn1)c1ccc(Cl)cc1 (stereo not drawn)
2. O=C(C1CCOCC1)N1CCOCC(Cc2ncccn2)C1 (stereo not drawn)
3. CC(C)N(Cc1ccccc1)Cc1csc(-c2ncccn2)n1

1: -9.08; 2: -10.5; 3: -10.1

Working through the 8 compounds below one at a time, give cytotoxicity at 70.5 h for each.
1. COCCN(C)C(=O)c1nc2c(s1)CCCN2c1ncccn1
2. Cc1ccc(CN2CC[C@@H]3[C@@H](CO[C@H]3CN3CCN(C)CC3)C2)cc1
3. c1coc(CN2CCc3nnc(COc4cncnc4)n3CC2)c1
4. Cc1nc2c(c(NCC3Cc4ccccc4CN3C)n1)CCNCC2 (stereo not drawn)
5. CCCN(Cc1ccccc1O)C(=O)Nc1cnn(CCOC)c1
6. Cc1nnc2n1CCN(C(=O)c1cnc3c(cnn3CC(C)C)c1)C2
7. COCCN1CC[C@@H]2OC[C@H](C(=O)NCc3cccs3)C[C@@H]2C1
8. CCn1cc(Br)c(C(=O)NCc2ccc(F)cc2)n1

1. -3.25
2. -0.515
3. -13.1
4. -8.03
5. -12.8
6. 25.8
7. 10.1
8. 4.64

Which cytotoxicity at 70.5 h value is on record for `O=c1ccc(-n2ccnc2)nn1CCNS(=O)(=O)c1ccc(Br)cc1` ?
15.1
